// reported composite z-score for each item listed
target: Carbonic anhydrase 2 (Homo sapiens); assay: CAII small-molecule binders, profiling panel, biochemical, small-molecule microarray, Alexa647-labelled CAII (AID 1122); conditions: CAII-A647 binding fluorescence, higher = more signal
# output: bare number, no unit

Reference set, count: 5
IN: Find the measured composite z-score: item O=C1C2C=CC(C(O)c3ccc(F)cc3)N(n3cnnc3)C2C(=O)N1Cc1ccccc1 (centres undefined) , target or system Carbonic anhydrase 2 (Homo sapiens).
OUT: 0.561

IN: Find the measured composite z-score: item "COC(=O)c1c(CC[C@@H](CO)NC(=O)N[C@H](Cn2cc(C3(O)CCCCC3)nn2)C(C)C)oc(C(C)=O)c1C(=O)OC" , target or system Carbonic anhydrase 2 (Homo sapiens).
OUT: 0.209

IN: Find the measured composite z-score: item CCC(CC)C(O)C1C=CC2C(=O)N(c3ccccc3)C(=O)C2N1Nc1ccc(C(C)C)cc1 (centres undefined) , target or system Carbonic anhydrase 2 (Homo sapiens).
OUT: 0.691

IN: Find the measured composite z-score: item CC(=O)c1ccc(C(O)C2C=CC3C(=O)N(c4ccccc4)C(=O)C3N2Nc2ccc(C#N)cc2)cc1 (centres undefined) , target or system Carbonic anhydrase 2 (Homo sapiens).
OUT: 0.759

IN: Find the measured composite z-score: item "COc1ccc(C#Cc2ccc3c(c2)[C@]2(C(=O)N3)[C@H](c3ccc(O)cc3)N3[C@H](c4ccccc4)[C@H](c4ccccc4)OC(=O)[C@H]3[C@@H]2C(=O)O)cc1" , target or system Carbonic anhydrase 2 (Homo sapiens).
OUT: 0.614

Now consider the entry below.
IN: Find the measured composite z-score: item "NCCCCCNC(=O)[C@@H]1C[C@@H]2C(=O)NCC(=O)N2[C@@H]1c1cccc(OCCO)c1" , target or system Carbonic anhydrase 2 (Homo sapiens).
OUT: 0.443

---

test: PSAC antagonists in infected red cells, primary screen, cell-based, P. falciparum Indochina, OD700, 1 h (AID 1154); conditions: P. falciparum Indochina infected RBC osmotic lysis, higher = more signal, called active from +8 up or from −8 down
recorded-endpoint: z-score
# output: bare number, no unit

IN: Bench note: what z-score did "C=CCNC(=O)[C@H]1[C@@H]2C(=O)O[C@@H](c3ccccc3)[C@@H](c3ccccc3)N2[C@@H](c2ccc(O)cc2)[C@]12C(=O)N(C(=O)OCCOC)c1ccccc12" show?
OUT: 1.97

IN: Bench note: what z-score did O=C1NC(=O)C2C1C=CC(C(O)c1ccco1)N2Nc1ccccn1 (stereo not drawn) show?
OUT: -0.379

IN: Bench note: what z-score did "C=CCNC(=O)[C@@H]1[C@H]2C(=O)O[C@H](c3ccccc3)[C@H](c3ccccc3)N2[C@H](c2ccc(O)cc2)[C@@]12C(=O)N(C(=O)OCCOC)c1ccc(C#CC3(O)CCCCCC3)cc12" show?
OUT: 0.776

---

// reported composite z-score for each item listed
test: small-molecule binders of probe aLefty1, primary screen, biochemical, small-molecule microarray, 635/667 nm fluorescence (AID 1153); conditions: higher = more signal;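 further: score merges spot fluorescence with signal-to-noise ratio from the scanned slide images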
# output: bare number, no unit

IN: Bench note: what composite z-score did "COCCCNC(=O)[C@@]1(Cc2ccccc2N=[N+]=[N-])COC(c2ccc(OCCCO)cc2)=N1" show?
OUT: 0.35

IN: Bench note: what composite z-score did "O=C(NCc1ccccc1)[C@@H]1c2ccccc2C(=O)N(Cc2ccccc2C(F)(F)F)[C@H]1c1ccc(CO)cc1" show?
OUT: -0.0731

IN: Bench note: what composite z-score did "COc1ccc([Si](C)(C)[C@@H]2[C@@H](CCO)O[C@]3(C(=O)N(Cc4ccc(N5CCCCC5=O)cc4)c4ccccc43)[C@H]2C)cc1" show?
OUT: 0.145

Now consider the entry below.
IN: Bench note: what composite z-score did "CCCNC(=O)[C@@]1(c2ccc([N+](=O)[O-])cc2)CC(=O)N(C2CCCCC2)[C@@H]1c1ccc(CO)cc1" show?
OUT: 0.062

---

test system: Sonic hedgehog protein (Shh); assay: small-molecule binders of Shh protein, primary screen, biochemical, small-molecule microarray, 635/667 nm fluorescence (AID 1151); conditions: small-molecule microarray binding, 635 nm fluorescence; higher = more signal;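 further: Shh protein binding to compounds spotted on small-molecule microarray slides; score combines spot fluorescence intensity with signal-to-noise across triplicate slides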
// reported composite z-score for each item listed
# output: bare number, no unit

IN: Bench note: what composite z-score did "NC(N)=NCCCn1cc(CNC(=O)[C@@H](N)Cc2ccccc2)nn1" show?
OUT: 1.08

IN: Bench note: what composite z-score did C=CCC(OC(C)=O)[C@@H]1[C@@H](N(Cc2cc3ccccc3o2)C(=O)Cc2ccc(F)cc2)c2cc(OCCCO)ccc2N1C(=O)c1ccc2ccccc2c1 (some centres undefined) show?
OUT: 0.697

IN: Bench note: what composite z-score did C=C(C)[C@@H]1CC=C(C(O)C2C=CC3C(=O)N(c4ccccc4)C(=O)C3N2Nc2ccccc2F)CC1 (some centres undefined) show?
OUT: 0.27

Now consider the entry below.
IN: Bench note: what composite z-score did "O=C(NCC(F)(F)F)[C@@H]1c2ccccc2C(=O)N(Cc2ccc(OC(F)(F)F)cc2)[C@H]1c1ccc(CO)cc1" show?
OUT: 1.74

---

experiment: modulators of S6 phosphorylation in cells, primary screen, cell-based, A549, cytoblot, luminescence, serum-stimulated (AID 1158); details: A549 phospho-S6 cytoblot, 5 h, higher = more signal;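 further: serum-stimulated A549 lung adenocarcinoma cells; signal is phosphorylated S6 detected by cytoblot immunostaining with HRP secondary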
recorded-endpoint: z-score
# output: bare number, no unit

IN: Bench note: what z-score did "COC(=O)c1nc2oc1CC[C@@H](CO)NC(=O)N(C)Cc1cnnn1C[C@H](Cc1ccccc1)NC2=O" show?
OUT: 0.688

IN: Bench note: what z-score did "COC(=O)Cn1c(C(=O)N(C)C)cc2c1C[C@H]1CN(C(=O)c3ccccc3)[C@@](Cc3ccc(F)cc3)(C(=O)OC)[C@@H]21" show?
OUT: -0.38

IN: Bench note: what z-score did "COC(=O)CCCCCCC(=O)Nc1ccc(NC(=O)CCCC[P+](c2ccccc2)(c2ccccc2)c2ccccc2)cc1" show?
OUT: 0.274

IN: Bench note: what z-score did "CCOC(=O)C[C@H]1[C@H](OC(=O)c2ccccc2-c2ccccc2)[C@@H](NC(=O)c2ccc(-c3ccccc3)cc2)c2cc(OCCCO)ccc2N1C(=O)c1ccc2ccccc2n1" show?
OUT: -0.0653

IN: Bench note: what z-score did "C[N+](C)(C)CCCCCCNC(=O)[C@H]1C[C@H]2C(=O)NCC(=O)N2[C@H]1c1ccc(O)cc1" show?
OUT: -0.217

IN: Bench note: what z-score did "Cc1ccc(S[C@]2(C(=O)NCC(F)(F)F)CC(=O)N(Cc3ccccc3)[C@@H]2c2ccc(CO)cc2I)cc1" show?
OUT: -0.404

IN: Bench note: what z-score did "CC(C)C(=C=CC[C@H](O)c1cccc(OCCO)c1)C[C@H](O)c1cc(Cl)cc(Cl)c1O" show?
OUT: 1.53

IN: Bench note: what z-score did "Cc1ccc(S[C@]2(C(=O)NCC(F)(F)F)CC(=O)N(C3CCCCC3)[C@@H]2c2ccc(CO)cc2I)cc1" show?
OUT: -0.283

IN: Bench note: what z-score did "C=CCOC(=O)[C@H]1[C@@H]2C(=O)O[C@@H](c3ccccc3)[C@@H](c3ccccc3)N2[C@@H](c2ccc(OCCOC(=O)[C@H]3C[C@H]4C(=O)N[C@@H](CC(C)C)C(=O)N4[C@H]3c3cccc(OCCO)c3)cc2)[C@]12C(=O)Nc1ccc(I)cc12" show?
OUT: 0.547

---

assay: yeast growth modulation, basal conditions, primary screen, YJM789 clinical isolate, OD600, 24 h (AID 1089);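 further: growth of clinical yeast isolate S. cerevisiae YJM 789 seeded 1000 cells per well; test concentration not given here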; details: S. cerevisiae YJM789 growth, higher = more signal, called active from +8 up or from −8 down
// reported z-score for each item listed
# output: bare number, no unit

Reference set, count: 5
IN: Bench note: what z-score did "CCOC(=O)[C@H]1[C@@H]2C(=O)N3CCC[C@H]3[C@H](O[Si](C(C)C)(C(C)C)C(C)C)[C@H]2C=C2CCN(S(=O)(=O)c3ccc(C)cc3)C[C@H]21" show?
OUT: -0.212

IN: Bench note: what z-score did "COC(=O)Cn1c(C(=O)N(C)C)cc2c1C[C@H]1CN(C(=O)c3ccccc3)[C@@](Cc3ccc(F)cc3)(C(=O)OC)[C@@H]21" show?
OUT: 1.28

IN: Bench note: what z-score did CC(C)C(CO)N1C(=O)[C@@H]2C3C(=O)OCCC/C=C\[C@H]3OC23C=CCN(C(C)(C)C)C(=O)[C@@H]13 (some centres undefined) show?
OUT: 0.465

IN: Bench note: what z-score did "C[N+](C)(C)CCCCCCNC(=O)[C@H]1C[C@H]2C(=O)N[C@@H](Cc3ccccc3)C(=O)N2[C@H]1c1ccc(O)cc1" show?
OUT: -0.327

IN: Bench note: what z-score did "CCOC(=O)C1=CC[C@@H](c2ccc(OCc3ccccc3)c(OC)c2)N(S(=O)(=O)c2ccc(C)cc2)[C@H]1c1ccc(SC)cc1" show?
OUT: -0.448

***
IN: Bench note: what z-score did "CCCC[C@@H]1C[C@H]1[C@@H](NC(=O)c1cccs1)c1ccc(C(F)(F)F)cc1" show?
OUT: 1.19

IN: Bench note: what z-score did "CN(C)CCCNC(=O)[C@@]1(c2ccc([N+](=O)[O-])cc2)CC(=O)N(CC23CC4CC(CC(C4)C2)C3)[C@@H]1c1ccc(CO)cc1I" show?
OUT: -25.1

IN: Bench note: what z-score did "C=C[C@@H](OC)[C@H](OC(=O)Nc1ccc(SC)cc1)c1ccc(O)c(F)c1" show?
OUT: 1.05

IN: Bench note: what z-score did "[N-]=[N+]=Nc1ccccc1C[C@]1(C(N)=O)N=C(c2ccc(OCCCO)cc2)O[C@H]1c1ccccc1N=[N+]=[N-]" show?
OUT: -0.376

IN: Bench note: what z-score did "O=C(NCC(F)(F)F)[C@@H]1c2ccccc2C(=O)N(Cc2ccc(OC(F)(F)F)cc2)[C@H]1c1ccc(CO)cc1" show?
OUT: -0.54

IN: Bench note: what z-score did "COC(=O)c1ccc([C@H](NC(=O)c2ccco2)[C@]2(C)C[C@H]2C2CCCCC2)cc1" show?
OUT: 0.0339

IN: Bench note: what z-score did "CN(C)CCCCNC(=O)[C@@H]1C[C@@H]2C(=O)N[C@@H](Cc3ccccc3)C(=O)N2[C@@H]1c1cccc(OCCO)c1" show?
OUT: -5.59

IN: Bench note: what z-score did CN(C)c1ccc(C(O)C2C=CC3C(=O)N(c4ccccc4)C(=O)C3N2Nc2ccc([N+](=O)[O-])cc2)cc1 (centres undefined) show?
OUT: 0.0475

IN: Bench note: what z-score did C[C@@H]1NC(=O)[C@@]23C(=O)N[C@@H](Cc4ccccc4)C2[C@H](C)[C@@]2(C)O[C@H]2C3/C=C/C/C=C\CNC(=O)[C@@H]2CCCN2C1=O (some centres undefined) show?
OUT: -0.498

IN: Bench note: what z-score did "CC(C)N1C(=O)C[C@@](C(=O)NCCCN(C)C)(c2ccc([N+](=O)[O-])cc2)[C@H]1c1ccc(CO)cc1" show?
OUT: -0.768

IN: Bench note: what z-score did C=CCC(OC(C)=O)[C@@H]1[C@@H](N(Cc2ccc(-c3cccc(C(F)(F)F)c3)o2)C(=O)c2ccc(-c3ccccc3)cc2)c2cc(OCCCO)ccc2N1C(=O)c1ccc2ccccc2n1 (some centres undefined) show?
OUT: 0.672

IN: Bench note: what z-score did "COC(=O)c1c(CC[C@@H](CO)NC(=O)N[C@H](Cn2cc(C3(O)CCCCC3)nn2)C(C)C)oc(C(C)=O)c1C(=O)OC" show?
OUT: -0.325

IN: Bench note: what z-score did "C[C@]1(C(=O)NC2CC2)c2ccccc2C(=O)N(Cc2ccccc2)[C@H]1c1ccc(CO)cc1" show?
OUT: -0.653
